These measurements were taken from PubChem BioAssay AID1159580.

Some compounds, each annotated with its measured normalized growth.
- ASSAY_EXPLANATION: chemical genetic growth profiling, strain panel (AID 1159580);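 further: tested at 20 µM; growth read once vehicle control cultures reached saturation at 30 °C; 1 = growth at the plate median or of vehicle wells; lower values mean less growth of the strain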
- CONDITION_PARAMETERS: S. cerevisiae deletion strains, growth OD, locus YJL095W, strain BCK1, hits give low values
About 2,000 (36%) of roughly 5,500 compounds were called active. Another 18% or so got no clear call; they are omitted. This is one part of the list.

{"columns": ["COMPOUND", "normalized growth"],
 "data": [
  ["COC(=O)C[C@H]1C(C)(C)C2(Cl)O[C@@]34CC2C(=O)[C@]1(C)C3CC[C@]1(C)C4=CC(=O)O[C@H]1c1ccoc1 (some centres undefined)", 0.996],
  ["OC[C@H]1O[C@H](O[C@]2(CCl)O[C@H](CCl)[C@@H](O)[C@@H]2O)[C@H](O)[C@@H](O)[C@H]1Cl", 0.996],
  ["CC1CC[C@@]2(OC1)O[C@H]1CC3C4CC[C@@H]5CC(=O)CC[C@]5(C)C4CC[C@]3(C)[C@H]1[C@@H]2C (some centres undefined)", 0.977],
  ["COCCCNC(=S)N/N=C\\c1cc(Br)ccc1O", 0.992]
]}
